# assay-text: activators reversing PD-1 mediated T-cell inhibition, primary screen, luminescence, primary human CD4 T cells, PD-L1 beads (AID 2316);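 note: 0% = median vehicle wells and 100% = positive control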
# run-parameters: CellTiter-Glo 96 h, hits give high values
In all, about 29,000 compounds went through this assay and fewer than 10 were called active. A selection follows.
Listed below: activation values for each entry.
Quick note: give the figure in %, leave out the unit.

C[C@H]1CN([C@@H](C)CO)C(=O)c2cccc(NS(=O)(=O)c3ccc(F)cc3)c2O[C@@H]1CN(C)C: 0.422
COc1ccc(NC(=O)N(C)C[C@@H]2OCCCC[C@@H](C)Oc3ccc(NC(=O)NC4CCCCC4)cc3C(=O)N([C@H](C)CO)C[C@@H]2C)cc1: 0.764
C[C@@H]1CN([C@@H](C)CO)C(=O)c2cc(NC(=O)CCCN(C)C)ccc2O[C@@H]1CN(C)Cc1ccncc1: 0.414
COc1ccc(S(=O)(=O)N(C)C[C@H]2Oc3ccc(NS(=O)(=O)c4ccc(F)cc4)cc3C(=O)N([C@H](C)CO)C[C@H]2C)cc1: 1.51
COC(=O)c1ccccc1NC(=O)C(C)Oc1ccccc1F (configuration not stated): 2.99
COc1ccc(NC(=O)Nc2ccc3c(c2)CC(=O)N([C@@H](C)CO)C[C@H](C)[C@@H](CN(C)Cc2ccc4c(c2)OCO4)O3)cc1: 0.816

Would you mind telling me what activation value was observed for `C[C@H]1CN([C@@H](C)CO)C(=O)c2cc(NS(C)(=O)=O)ccc2O[C@H]1CN(C)C(=O)Nc1ccc(C(F)(F)F)cc1` ? 0.226

Would you mind telling me what activation value was observed for `COc1ccc(NC(=O)Nc2ccc3c(c2)CC(=O)N([C@@H](C)CO)C[C@H](C)[C@H](CN(C)C(=O)Nc2ccc4c(c2)OCO4)O3)cc1` ? 0.0102

Would you mind telling me what activation value was observed for `C[C@H]1CN([C@@H](C)CO)C(=O)Cc2cc(NC(=O)CCCCCC(=O)Nc3ccccc3N)ccc2O[C@H]1CN(C)C(=O)Nc1ccc(F)cc1` ? 0.894

====

# assay-text: activators reversing PD-1 mediated T-cell inhibition, primary screen, luminescence, primary human CD4 T cells, PD-L1 beads (AID 2316);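 note: 0% = median vehicle wells and 100% = positive control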
# run-parameters: CellTiter-Glo 96 h, hits give high values
Hit rate of the full screen: of about 29,000 compounds, fewer than 10 were called active. The list is a sample of the results.
result-type: activation

COc1ccc2nc3c(nc2c1)C(=O)c1ccccc1C3=O: 0.69% (inactive)

Would you mind telling me what activation value was observed for `Cc1ccc(S(=O)(=O)Nc2ccc3c(c2)CC(=O)N([C@H](C)CO)C[C@@H](C)[C@H](CN(C)S(=O)(=O)c2c(C)noc2C)O3)cc1` ? 0.836% (inactive)

Would you mind telling me what activation value was observed for `C[C@H]1CN([C@@H](C)CO)C(=O)c2cccc(NC(=O)c3cnccn3)c2O[C@@H]1CN(C)Cc1ccc(Oc2ccccc2)cc1` ? -2.26% (inactive)
